Exercise: state measured 3F8 Ortho Proliferation Signal 1:2 for each of the binders provided.
Molecular target: T1, orthogonal hCD122 receptor (hoRb), hCD122 with H133D and Y134F (human, UniProt P14784 27-550)
T1 sequence: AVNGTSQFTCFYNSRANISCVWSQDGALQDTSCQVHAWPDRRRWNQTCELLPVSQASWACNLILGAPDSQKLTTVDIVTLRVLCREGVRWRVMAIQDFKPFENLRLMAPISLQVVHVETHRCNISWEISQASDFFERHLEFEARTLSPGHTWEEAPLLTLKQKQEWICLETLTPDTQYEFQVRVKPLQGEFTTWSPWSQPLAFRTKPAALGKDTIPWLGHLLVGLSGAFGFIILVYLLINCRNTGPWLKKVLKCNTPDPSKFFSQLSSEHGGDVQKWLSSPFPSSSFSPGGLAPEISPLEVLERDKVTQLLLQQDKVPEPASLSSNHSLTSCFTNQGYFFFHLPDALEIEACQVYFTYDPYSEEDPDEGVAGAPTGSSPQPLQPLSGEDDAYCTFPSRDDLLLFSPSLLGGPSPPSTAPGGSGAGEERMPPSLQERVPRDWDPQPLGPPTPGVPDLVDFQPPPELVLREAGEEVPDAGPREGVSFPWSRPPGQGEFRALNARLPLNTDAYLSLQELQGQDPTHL
Assay: cell-based or functional assay
Hey, just the number and the unit after it is fine.

Request: Look up 3F8 Ortho Proliferation Signal 1:2: L80V, SQVLKA (ligand) APTSSSTKKTQLQLSQLLVLLKAILNGINNYKNPKLTRMLTFKFYMPKKATELKHLQCLEEELKPLEEVLNLAQSKNFHVRPRDLISNINVIVLELKGSETTFMCEYADETATIVEFLNRWITFCQSIISTLT
Response: 34900 cts/min

Request: Look up 3F8 Ortho Proliferation Signal 1:2: SQVLMA (ligand) APTSSSTKKTQLQLSQLLVLLMAILNGINNYKNPKLTRMLTFKFYMPKKATELKHLQCLEEELKPLEEVLNLAQSKNFHLRPRDLISNINVIVLELKGSETTFMCEYADETATIVEFLNRWITFCQSIISTLT
Response: 20800 cts/min
